experiment: Tigecycline plasma PK and % F after PO enteric-coated capsule in dogs; assay type: in vivo, Beagle dogs; conditions: female, beagle, dog, plasma, po, 45 mg, Tigecycline Plasma Concentration, Time (min) 1.0; PO 45 mg enteric-coated capsule with 500 mg CA and 100 mg LLC, SC430; mean
EXPERIMENTAL ENDPOINT: concentration at 1 min (ng/mL)
One number for each entry, in ng/mL.

Exercise: concentration at 1 min lookup needed for CN(C)c1cc(NC(=O)CNC(C)(C)C)c(O)c2c1C[C@H]1C[C@H]3[C@H](N(C)C)C(O)=C(C(N)=O)C(=O)[C@@]3(O)C(O)=C1C2=O , thanks.
Solution: 56.4

====

assay: Tigecycline plasma PK and % F after PO enteric-coated capsule in dogs; type: in vivo, Beagle dogs; details: female, beagle, dog, plasma, po, 30 mg; read-out: AUC(0-t)
EXPERIMENTAL ENDPOINT: AUC(0-t)
# include the unit after the value

Exercise: Need AUC(0-t), item CN(C)c1cc(NC(=O)CNC(C)(C)C)c(O)c2c1C[C@H]1C[C@H]3[C@H](N(C)C)C(O)=C(C(N)=O)C(=O)[C@@]3(O)C(O)=C1C2=O
Solution: 367 ng·h/mL

====

test: Tigecycline plasma PK and % F after intraduodenal (ID) injection in anesthetized rats; assay type: in vivo, Sprague-Dawley Rats; conditions: female, Sprague-Dawley, rat, plasma, 4.8 mg/kg, pH 6, RA867, ID, 400 mM CA/26 mM LLC pH 6.0, 4.8 mg/kg; read-out: % F, mean
EXPERIMENTAL ENDPOINT: bioavailability
Express the reported value numerically, then name its unit.

Exercise: Consider the compound shown here: CN(C)c1cc(NC(=O)CNC(C)(C)C)c(O)c2c1C[C@H]1C[C@H]3[C@H](N(C)C)C(O)=C(C(N)=O)C(=O)[C@@]3(O)C(O)=C1C2=O What is its recorded bioavailability?
Solution: 5.5%

====

test: Tigecycline plasma PK after IV bolus in dogs; format: in vivo, Beagle dogs; settings: female, beagle, dog, plasma, iv, […], 5 mg IV in PBS ([…]), SC431; mean; read-out: Cmax
EXPERIMENTAL ENDPOINT: Cmax (ng/mL)
Numbers only, in ng/mL.

Exercise: Could you share which Cmax value was measured for CN(C)c1cc(NC(=O)CNC(C)(C)C)c(O)c2c1C[C@H]1C[C@H]3[C@H](N(C)C)C(O)=C(C(N)=O)C(=O)[C@@]3(O)C(O)=C1C2=O ?
Solution: 335

====

assay: Tigecycline plasma PK and % F after intraduodenal (ID) injection in anesthetized rats; type: in vivo, Sprague-Dawley Rats; conditions: female, Sprague-Dawley, rat, plasma, other: intraduodenal bolus injection, 4.8 mg/kg, ID, PBS, 4.8 mg/kg (RA851); 10 min
EXPERIMENTAL ENDPOINT: concentration at 10 min (µg/mL)
Answers are plain numbers, in µg/mL.

Exercise: I would be grateful if you could share the reported concentration at 10 min for CN(C)c1cc(NC(=O)CNC(C)(C)C)c(O)c2c1C[C@H]1C[C@H]3[C@H](N(C)C)C(O)=C(C(N)=O)C(=O)[C@@]3(O)C(O)=C1C2=O [Tigecycline] .
Solution: 0.031

====

assay: Tigecycline plasma PK and % F after PO enteric-coated capsule in dogs; type: in vivo, Beagle dogs; conditions: female, beagle, dog, plasma, po, 15 mg, Tigecycline Plasma Concentration, 180 min; PO 15 mg unformulated enteric-coated capsule, SC424; individual dogs
EXPERIMENTAL ENDPOINT: concentration at 180 min (ng/mL)
One number for each entry, in ng/mL.

Exercise: Tell me the measured concentration at 180 min of CN(C)c1cc(NC(=O)CNC(C)(C)C)c(O)c2c1C[C@H]1C[C@H]3[C@H](N(C)C)C(O)=C(C(N)=O)C(=O)[C@@]3(O)C(O)=C1C2=O , please.
Solution: 0
